Assign inhibition to each entry below.
Assay: inhibitors of TNFa-induced NFkB p65 translocation, primary screen, imaging, HUVEC, MLSMR starter and 10KST1 sets (AID 438);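 also: compound added about 3h40 before a 20 min TNFalpha stimulation; signal is the nuclear over cytoplasmic p65 intensity ratio per well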
Conditions: HUVEC TNFa-induced p65 nuclear translocation; at 2 µM, stronger effect = higher value, 0% TNFa-plus-vehicle, 100% no-TNFa wells
I only need the number, in %, no unit after it.

Consider the compound Cc1nc2c(c(=O)n1CC1CCCO1)c1nc3ccccc3nc1n2Cc1ccc2c(c1)OCO2 (stereo not drawn) and give its measured inhibition.
-7.1

Check CCCC(=O)N(Cc1cc2ccccc2[nH]c1=O)c1ccccc1OC too.
-16.8

Also need COc1cccc(-c2nc(N3CC(C)CC(C)C3)c3ccccc3n2)c1O (stereo not drawn) , thanks.
-11.7

* * *

Exercise: state measured slope for each of the compounds provided.
Target: Alpha-2C adrenergic receptor (Homo sapiens) (UniProt P18825)
Sequence (P18825 whole entry, looked up): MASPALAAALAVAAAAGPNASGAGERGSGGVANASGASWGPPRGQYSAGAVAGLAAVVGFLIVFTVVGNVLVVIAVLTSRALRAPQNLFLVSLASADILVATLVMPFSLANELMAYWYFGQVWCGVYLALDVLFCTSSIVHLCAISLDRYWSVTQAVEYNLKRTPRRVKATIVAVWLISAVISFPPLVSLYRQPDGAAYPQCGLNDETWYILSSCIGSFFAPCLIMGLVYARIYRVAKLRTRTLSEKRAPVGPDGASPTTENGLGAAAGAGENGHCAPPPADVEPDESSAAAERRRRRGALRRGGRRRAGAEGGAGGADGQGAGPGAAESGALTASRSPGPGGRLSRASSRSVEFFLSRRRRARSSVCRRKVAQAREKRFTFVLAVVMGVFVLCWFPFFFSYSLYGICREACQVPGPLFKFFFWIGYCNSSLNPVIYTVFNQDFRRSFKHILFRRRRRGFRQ
Test: modulators of alpha2C/GIRK thallium flux, primary screen, cell-based, HEK293 alpha2C/GIRK1/2 (AID 624);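 also: slope of fluorescence ratio to pre-addition baseline per second over 15 to 24 s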
Conditions: thallium flux BTC fluorescence, at 10 µM, actives lie on both sides
Give the figure only, with no unit attached.

What value of measured slope is listed for COC(=O)Nc1nc2ccc(Sc3ccccc3)cc2[nH]1 ?
0.00514

Also Cc1[nH]c2ccc(F)cc2c(=O)c1SC(F)(F)C(F)C(F)(F)F (stereo unspecified) , if possible.
0.0059

Also COc1ccc(OCC(O)Cn2c(Nc3cccc(C)c3)nc3c2c(=O)n(C)c(=O)n3C)cc1 (stereo unspecified) ?
0.00591

How about O=C(CCC(=O)CCN1CCCCC1)CCN1CCCCC1 ?
0.00498

Next record, please: Cc1cc(COc2ccccc2OCCN2CCN(C)CC2)no1
0.0049

CC(=O)Nc1ccc(-c2cc3ccccc3o2)cc1 ?
0.00496

Follow-up entry: COc1ccc(C2/C(=C(/O)c3cnn(-c4ccccc4)c3C)C(=O)C(=O)N2CCN(C)C)cc1OC (stereo unspecified)
0.00586

Similarly, COc1ccc(C2/C(=C(/O)c3ccc(OC(C)C)cc3)C(=O)C(=O)N2CCCN2CCOCC2)cc1 (stereo unspecified) ?
0.00508

Next compound: CCCOc1ccc(/C(O)=C2/C(=O)C(=O)N(CCCN3CCOCC3)C2c2ccncc2)cc1 (stereo unspecified)
0.0051

Same read-out for CCOc1ccc(-c2nnc3sc(-c4ccccc4OC)nn23)cc1 ?
0.00485

Also COCCCC/C(=N\OCCN)c1ccc(C(F)(F)F)cc1 ?
0.00513

* * *

Experiment: inhibitors of E-selectin induction by TNFa, primary screen, imaging, HUVEC, immunofluorescence, MLSMR starter and 10KST1 sets (AID 487);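 also: 100% = median nuclei count of all wells on the same plate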
Conditions: HUVEC TNFalpha-induced E-selectin immunofluorescence imaging, at 2 µM; measured here: cell number, toxicity
measuredParameter: nuclei count (%)
Provide only the numeric value, understood in %.

Entry under review: CC1(C)CC(NC(=O)C23CCC(C)(/C(=N/O)C2)C3(C)C)CC(C)(C)N1 (stereo not drawn) . Reported nuclei count?
179

Another compound: c1ccc(C2Nc3ccccc3-c3nc4ccccc4n32)nc1 (stereo not drawn)
101

Also need COc1cc2[nH]c3c(=O)n(CCN(C(C)C)C(C)C)cnc3c2cc1OC , thanks.
150

Continue with CCCCOc1ccccc1/C=c1/sc2nc(-c3oc4ccccc4c3C)nn2c1=O
128

Entry Cc1cn([C@H]2C[C@H](N=[N+]=[N-])[C@@H](CO)O2)c(=O)[nH]c1=O please
128

Entry CCCCCCCC(=O)OCC(=O)[C@@]1(O)CC[C@H]2[C@@H]3CCC4=CC(=O)CC[C@]4(C)[C@H]3[C@@H](O)C[C@@]21C please
107

Same question, CC(C)C1Cc2c(C#N)c(N)sc(=S)c2CO1 (stereo not drawn) this time
146

Please answer likewise for CCOC(=O)c1cc(C)n(-c2ccc(OC)c(OC)c2)c1C
122

Okay, and COC(=O)C1=C(C)NC(C)=C(C(=O)OC)C1c1ccccc1[N+](=O)[O-] ?
116

Queued: CC1(C)Cc2c(C#N)c(SCCC#N)nc(N3CCOCC3)c2CS1
132

Now consider Clc1ccc2[nH]c3c(NCCCN4CCOCC4)ncnc3c2c1 and answer again.
102

Note, next up: O=C1NC(c2cccs2)Nc2ccccc21 (stereo not drawn)
140

Would you mind doing Cn1c(N2CCOCC2)nc2c1c(=O)n(Cc1ccc(Cl)cc1)c(=O)n2C as well?
101

Note, next up: C=CCn1c(SCC(=O)NC23CC4CC(CC(C4)C2)C3)nc(O)cc1=O
129

# iterate: Cc1cc(=O)n2[nH]cnc2n1
125

Here is the next compound: CC1(C)Cc2c(C#N)c(NCC3CCCO3)nc(-c3ccco3)c2CO1 (stereo not drawn)
123

Let us now turn to CCCSc1nc(C)c(CC(=O)OCC)c(=O)[nH]1
138

Again, but for O=C(O)C1CSCN1S(=O)(=O)c1cccc2nsnc12 (stereo not drawn)
120

And then CC[C@H]1OC(=O)C[C@@H](O)[C@H](C)[C@@H](O[C@@H]2O[C@H](C)C[C@H](N(C)C)[C@H]2O)[C@@H](CC=O)C[C@@H](C)C(=O)C=C[C@]2(C)O[C@H]2[C@@H]1C , what is it?
116

Lookup CCCC(=O)Nc1ccc(OCC(O)CNC(C)C)c(C(C)=O)c1 (stereo not drawn)
120

Similarly, CCOc1ccc(Cc2nc(N)nc(N)n2)cc1 ?
155

Next compound: C=CCc1cccc(/C=N/c2ncn[nH]2)c1O
148

Ok, now COC(=O)CSc1nnc2n(-c3ccc(OC)cc3)c(=O)c3c4c(sc3n12)CCCCC4
149

Let us now turn to COC(=O)CN(c1nc(C)c(Br)c(OC)n1)S(=O)(=O)c1ccc(C)cc1
142

Now this one: Nc1nc(Cl)nc2c1ncn2[C@@H]1O[C@H](CO)[C@@H](O)[C@H]1O
117

Another: Cc1cc(N2C(=O)C(=O)/C(=C(/O)c3ccccc3)C2c2cccc(Br)c2)no1 (stereo not drawn)
93.2

Repeat for the following compound: C=CCSc1nnc2n(-c3ccccc3OC)c(=O)c3c4c(sc3n12)CCC4
126

Input COc1ccc(CNC(=O)[C@H](C)NC(=O)C2CCN(S(=O)(=O)c3ccc(C)cc3)CC2)cc1
110

And for C/C(=N\O)C1(C)N(O)C(C)(C)C(c2ccco2)=[N+]1[O-] (stereo not drawn) ?
131

Now consider Cc1cc(C)cc(-n2c3nc4ccccc4nc3c3c(=O)n(Cc4ccco4)cnc32)c1 .
134

Then Cc1nc2sc3c(c2c(=O)o1)CC(C)(C)OC3 ?
115

// repeat for COC(=O)c1cc(=O)n2c(-c3ccc(OC)cc3)csc2n1 and report
133

Also need C=CCn1c(SCc2c(F)c(F)c(F)c(F)c2F)nc(O)cc1=O , thanks.
149

How about this compound: O=CN1CCN(C(=O)CN2C(=O)c3ccccc3C2=O)CC1
161

Note, next up: Nc1ccc2[nH]ncc2c1
141

Also, C#CCN(C)Cc1ccccc1 please.
135

Moving on to COc1ccc(OC)c(C2C(C#N)=C(N)Oc3cc(C)[nH]c(=O)c32)c1 (stereo not drawn)
122

Could you do the same for Oc1ccc2c(c1)C1CCCC1(N1CCOCC1)O2 (stereo not drawn) , please?
128
